# assayed.system: T1, canine IL-31 protein (Canine_IL31)
# T1 chain: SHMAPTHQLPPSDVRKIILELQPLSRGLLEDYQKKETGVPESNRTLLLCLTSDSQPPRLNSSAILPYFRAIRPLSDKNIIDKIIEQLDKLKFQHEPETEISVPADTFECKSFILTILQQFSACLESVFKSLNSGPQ
# test.protocol: Biacore
Let's look at some binders and their measured Kd.
property.label: Kd (nM)

[
  {
    "binder": "Feline 15H05 VH2 mouse VL (antibody, V domains shown) VH: QVLLVQSGAEVRTPGASVKIFCKASGYGFTSYTIHWVRQSPAQGLEWMGNINPTSGYTENNQRFKDRLTLTADTSTNTAYMELSSLRSADTAMYYCARWGFKYDGEWSFDVWGAGTTVTVSS VL: DIQMNQSPSSLSASLGDTITVTCRASQGISIWLSWYQQKPGNIPKVLINKASNLHIGVPPRFSGSGSGTHFTLTITSLQPEDIATYYCLQSQTYPLTFGGGTKLEIN",
    "unit": "nM",
    "value.measured": 2.22
  },
  {
    "binder": "Feline 15H05 VH1 mouse VL (antibody, V domains shown) VH: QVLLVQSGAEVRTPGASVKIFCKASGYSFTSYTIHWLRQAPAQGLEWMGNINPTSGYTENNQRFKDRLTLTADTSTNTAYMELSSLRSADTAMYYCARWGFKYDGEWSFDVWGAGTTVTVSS VL: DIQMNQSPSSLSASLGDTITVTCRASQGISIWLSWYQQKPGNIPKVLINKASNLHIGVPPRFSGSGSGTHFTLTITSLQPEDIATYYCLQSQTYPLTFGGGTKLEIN",
    "unit": "nM",
    "value.measured": 0.00246
  },
  {
    "binder": "Feline 15H05 1.1 FW3 (antibody, V domains shown) VH: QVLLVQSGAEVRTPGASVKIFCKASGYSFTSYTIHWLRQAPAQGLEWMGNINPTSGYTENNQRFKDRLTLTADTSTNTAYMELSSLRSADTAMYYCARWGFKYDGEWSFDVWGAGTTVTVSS VL: EIQMTQSPSSLSASPGDRVTITCRASQGISIWLSWYQQKPGKVPKLLIYKASNLHIGVPPRFSGSGSGTHFTLTITSLQPEDIATYYCLQSQTYPLTFGGGTKLEIK",
    "unit": "nM",
    "value.measured": 0.13
  },
  {
    "binder": "Feline 15H05 1.1 FW1_3 (antibody, V domains shown) VH: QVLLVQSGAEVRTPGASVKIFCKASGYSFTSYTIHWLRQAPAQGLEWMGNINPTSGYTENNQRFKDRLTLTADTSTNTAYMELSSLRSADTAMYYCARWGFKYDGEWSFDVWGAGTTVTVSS VL: DIQMNQSPSSLSASLGDTITVTCRASQGISIWLSWYQQKPGKVPKLLIYKASNLHIGVPPRFSGSGSGTHFTLTITSLQPEDIATYYCLQSQTYPLTFGGGTKLEIK",
    "unit": "nM",
    "value.measured": 0.00436
  },
  {
    "binder": "Feline 15H05 2.1 (antibody, V domains shown) VH: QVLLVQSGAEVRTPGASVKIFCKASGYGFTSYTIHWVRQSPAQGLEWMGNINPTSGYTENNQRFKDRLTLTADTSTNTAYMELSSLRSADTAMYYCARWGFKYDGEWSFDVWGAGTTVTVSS VL: EIQMTQSPSSLSASPGDRVTITCRASQGISIWLSWYQQKPGKVPKLLIYKASNLHIGVPSRFSGSGSGTDFTLTISSLEPEDAATYYCLQSQTYPLTFGGGTKLEIK",
    "unit": "nM",
    "value.measured": 1.65
  }
]
